Values from patent US11390884B2

- Test system: HBB locus
- assay.info: Gene editing at the HBB locus in cord blood CD34+ HSCs (T7E1, DNA sequencing)
- Type: cell-based, human
- condition.description: CB CD34+, enhancer 18 hours before and 3 days after electroporation with D10A Cas9 RNP, HBB-8/HBB-15, Phx ssODN, UM171 35 nM, UM171/SR-1 35/40 nM, rapamycin 5 nM, OxPAPC 30 μg/mL, bafilomycin A1 1 μM, MG132 0.5 μM
Peptide text beside a SMILES is read from it. * marks the point of attachment. Cbz = O=C(OCc1ccccc1)*
measured.parameter: % HDR (%)
Form entry: value (%) — number only.

Consider the following illustrative entries.
compound	test.system	% HDR, %
CC(C)C[C@@H](C=O)NC(=O)[C@H](CC(C)C)NC(=O)[C@H](CC(C)C)NC(=O)OCc1ccccc1 [MG132, reference compound] (Cbz-Leu-Leu-Leu-aldehyde)	HBB locus	0
CO/C1=C\C(C)=C\[C@@H](C)[C@@H](O)[C@@H](C)C/C(C)=C/C=C/[C@H](OC)[C@@H]([C@@H](C)[C@@H](O)[C@H](C)[C@@]2(O)C[C@@H](O)[C@H](C)[C@@H](C(C)C)O2)OC1=O [Bafilomycin A1, reference compound]	HBB locus	0
CO[C@H]1C[C@@H]2CC[C@@H](C)[C@@](O)(O2)C(=O)C(=O)N2CCCC[C@H]2C(=O)O[C@H]([C@H](C)C[C@@H]2CC[C@@H](O)[C@H](OC)C2)CC(=O)[C@H](C)/C=C(\C)[C@@H](O)[C@@H](OC)C(=O)[C@H](C)C[C@H](C)/C=C/C=C/C=C/1C [Rapamycin (sirolimus), Rapamycin, reference compound]	HBB locus	7

Attention now turns to another entry.
Query: % HDR lookup needed for `Cn1nnc(-c2ccc3c(c2)[nH]c2nc(Cc4ccccc4)nc(N[C@H]4CC[C@H](N)CC4)c23)n1` , thanks.
Result: 0
